src = ChEMBL document CHEMBL2406933

Kd for assorted molecules
Target: Replication protein A 70 kDa DNA-binding subunit (Homo sapiens)
Sequence (P27694 whole entry): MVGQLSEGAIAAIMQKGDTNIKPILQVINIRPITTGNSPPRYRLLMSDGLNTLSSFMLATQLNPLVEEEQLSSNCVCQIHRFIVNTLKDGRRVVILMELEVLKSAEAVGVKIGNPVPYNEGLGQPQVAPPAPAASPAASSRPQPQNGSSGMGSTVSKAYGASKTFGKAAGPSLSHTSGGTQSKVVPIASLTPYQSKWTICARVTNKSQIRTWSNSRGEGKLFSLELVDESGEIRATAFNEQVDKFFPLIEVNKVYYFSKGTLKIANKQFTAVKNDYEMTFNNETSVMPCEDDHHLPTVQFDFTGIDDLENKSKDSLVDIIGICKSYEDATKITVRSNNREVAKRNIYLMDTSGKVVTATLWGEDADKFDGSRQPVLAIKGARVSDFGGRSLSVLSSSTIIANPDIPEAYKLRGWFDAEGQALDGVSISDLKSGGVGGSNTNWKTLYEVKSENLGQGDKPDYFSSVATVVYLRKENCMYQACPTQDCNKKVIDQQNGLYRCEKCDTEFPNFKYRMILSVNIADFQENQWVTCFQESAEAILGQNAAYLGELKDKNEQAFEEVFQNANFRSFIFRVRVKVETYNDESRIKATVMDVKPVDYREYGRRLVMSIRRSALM
Test: Binding affinity to human RPA70N assessed as inhibition of interaction with FITC-Ahx-DFTADDLEELDTLAS-NH2 after 1 hr by fluorescence polarization anisotropy assay

// query Requested field: Kd. Item: Cc1ccccc1-c1nnc(SCC(=O)O)n1-c1cccc(Cl)c1
// result > 250 µM

// query Fill blank: measured Kd of the molecule Cc1ccc(-c2nnc(S)n2-c2ccc3cc(C(=O)O)sc3c2)cc1 is ____.
// result > 250 µM

// query Please give the measured Kd for this molecule: O=C(O)CSc1nnc(-c2ccc(F)cc2)n1-c1ccc(Cl)cc1
// result > 250 µM
